B1: MED27 (parent)
chain: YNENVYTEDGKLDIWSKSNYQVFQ

Variants of: B1
run_description: protein stability index of a GFP-peptide fusion (GPS, HEK-293T) (PSI 1-6); higher = more stable;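 note: lentivirally expressed fusions sorted by FACS into six bins by GFP to DsRed ratio, PSI derived from sequencing read proportions per bin multiplied by bin number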
experimental_conditions: c terminus: a fixed tail appended
readout_kind: protein stability index

Worked examples, 8 variants total:
>  <mutations>
L12F

>  <result>
2.19

$$$$
>  <mutations>
Q21E

>  <result>
2.09

$$$$
>  <mutations>
V22M

>  <result>
2.37

$$$$
>  <mutations>
G10L

>  <result>
2.17

$$$$
>  <mutations>
D13C

>  <result>
2.09

$$$$
>  <mutations>
Q21T

>  <result>
2.76

$$$$
>  <mutations>
G10K

>  <result>
2.91

$$$$
>  <mutations>
Y20D

>  <result>
3.38

$$$$

// sample V5I , its protein stability index was 2.73

// sample I14F , its protein stability index was 2.3

Cited source for all entries: the supplement of paper PMC10567573
